Reference for the values: ChEMBL document CHEMBL5104168

Test system: MDA-MB-231
Test: Anticancer activity against human MDA-MB-231 cells assessed as inhibition of cell proliferation
Type: functional, cell-based
EXPERIMENTAL_READOUT: IC50 (µM)

Example cases with answers are listed next.
INSERT INTO results (compound, numeric_result) VALUES
  ('O=C1C=CC2(OCC(=O)N2Cc2ccc(Br)cc2)C2CC12 (stereo not given)', 1.12),
  ('CCSC1=CC(=O)CC(SCC)C12OCC(=O)N2Cc1c(Cl)cccc1Cl (stereo not given)', 0.12),
  ('COC(=O)C(C(=O)OC)C1CC(=O)C=CC12OCC(=O)N2Cc1cccc(Cl)c1 (stereo not given)', 0.25),
  ('O=C1C=CC2(C=C1)OCC(=O)N2Cc1ccc([N+](=O)[O-])cc1', 0.21),
  ('Cc1ccc(CN2C(=O)COC23C=CC(=O)C=C3)cc1', 0.1);

A. CCSC1CC(=O)CC(SCC)C12OCC(=O)N2Cc1ccc(C)cc1 (stereo not given)
B. O=C1C=CC2(OCC(=O)N2Cc2ccccc2Cl)C2CC12 (stereo not given)
Incoming: Record comparison, field IC50: mark the lower of A and B . Identify your selection by its label.
Outgoing: B

---

Test system: A549
Experiment: Anticancer activity against human A549 cells assessed as inhibition of cell proliferation
Format: functional, cell-based
EXPERIMENTAL_READOUT: IC50 (µM)

For orientation, consider the following solved cases.
INSERT INTO measurements (molecule, experimental_system, numeric_result) VALUES
  ('O=C1C=CC2(OCC(=O)N2Cc2ccc(Br)cc2)C2CC12 (stereo unspecified)', 'A549', 6.09),
  ('O=C1C=CC2(OCC(=O)N2Cc2ccc(Cl)cc2)C2CC12 (stereo unspecified)', 'A549', 6.06),
  ('CCSC1=CC(=O)CC(SCC)C12OCC(=O)N2Cc1c(Cl)cccc1Cl (stereo unspecified)', 'A549', 9.27);

P. O=C1C=CC2(OCC(=O)N2Cc2c(Cl)cccc2Cl)C2CC12 (stereo unspecified)
Q. O=C1C=CC2(C=C1)OCC(=O)N2Cc1ccc(Cl)cc1
Incoming: Param pair: P , Q . Output: the one whose IC50 is numerically greater. Please reply using the label of the selected record.
Outgoing: P
(P: 8.83 µM, Q: 1.29 µM)

---

Tested on: MDA-MB-231
Test: Anticancer activity against human MDA-MB-231 cells assessed as inhibition of cell proliferation
Format: functional, cell-based
EXPERIMENTAL_READOUT: IC50 (nM)

Worked cases, IC50 given:
INSERT INTO assay_data (molecule, unit_text, numeric_result) VALUES
  ('COC(=O)C(C(=O)OC)C1CC(=O)C=CC12OCC(=O)N2Cc1ccc(Cl)cc1 (stereo not drawn)', 'nM', 380),
  ('O=C1C=CC2(C=C1)OCC(=O)N2Cc1c(Cl)cccc1Cl', 'nM', 120);

1. O=C1C=CC2(C=C1)OCC(=O)N2Cc1ccccc1Cl
2. COC(=O)C(C(=O)OC)C1CC(=O)C=CC12OCC(=O)N2Cc1ccc(C)cc1 (stereo not drawn)
Incoming: Two entries are listed, 1 and 2 . Which one carries the higher IC50? In your reply, give the label of the chosen option.
Outgoing: 2
(2: 340 nM, 1: 70 nM)

---

Test system: MDA-MB-231
Test: Anticancer activity against human MDA-MB-231 cells assessed as inhibition of cell proliferation
Type: functional, cell-based
EXPERIMENTAL_READOUT: IC50 (nM)

In the examples that follow, each entry is paired with its recorded IC50.
INSERT INTO results (molecule, experimental_readout, unit_text, numeric_result) VALUES
  ('O=C1C=CC2(C=C1)OCC(=O)N2Cc1cccc(Cl)c1', 'IC50', 'nM', 110),
  ('O=C1C=CC2(C=C1)OCC(=O)N2Cc1ccc(Br)cc1', 'IC50', 'nM', 80),
  ('CCSC1CC(=O)CC(SCC)C12OCC(=O)N2Cc1ccc(Cl)cc1 (centres undefined)', 'IC50', 'nM', 260),
  ('O=C1C=CC2(OCC(=O)N2Cc2ccc([N+](=O)[O-])cc2)C2CC12 (centres undefined)', 'IC50', 'nM', 1200),
  ('O=C1C=CC2(OCC(=O)N2Cc2ccc(Cl)cc2)C2CC12 (centres undefined)', 'IC50', 'nM', 100);

1. O=C1C=CC2(OCC(=O)N2Cc2c(Cl)cccc2Cl)C2CC12 (centres undefined)
2. COC(=O)C(C(=O)OC)C1CC(=O)C=CC12OCC(=O)N2Cc1ccc(Br)cc1 (centres undefined)
3. O=C1C=CC2(OCC(=O)N2Cc2cccc(Cl)c2)C2CC12 (centres undefined)
4. O=C1C=CC2(C=C1)OCC(=O)N2Cc1ccc(Cl)cc1
Incoming: Place the items in sequence of falling IC50. Kindly provide the labels arranged according to the requested ordering.
Outgoing: 1, 2, 3, 4
(1: 5520 nM, 2: 1230 nM, 3: 460 nM, 4: 110 nM)
